Sourced from PubChem BioAssay

Test: small-molecule microarray binders of probe aShh, primary screen, biochemical, biotinylated probe, 635/667 nm fluorescence (AID 1114);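 further: probe is biotin-labelled aShh protein from a stem cell growth factor screen; measures binding of labelled protein to compounds printed on the slide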
Conditions: higher = more signal
Quick rule for you: composite z-score at 0.01 or higher means T, lower means F.

Ask: Reported composite z-score reaches at least 0.01 for O=C1C[C@]2(c3ccc([N+](=O)[O-])cc3)C(=O)N(CCN3CCOCC3)c3cc(CO)ccc3[C@H]2N1C1CCCCC1 ?
Result: F

Ask: Also need [N-]=[N+]=NCc1ccccc1C[C@@]1(C(=O)NCC(O)CO)N=C(c2ccc(OCCCO)cc2)O[C@@H]1c1ccccc1N=[N+]=[N-] (some centres not stated) , thanks.
Result: T

Ask: Try this molecule too: CC1CC/C=C\[C@H]2OC34C=CCN(Cn5nnc6ccccc65)C(=O)[C@H]3N(C(CO)C(C)C)C(=O)[C@@H]4C2C(=O)O1 (some centres not stated)
Result: T

Ask: Moving on to CN1C(=O)C2C=CC(C(O)C3CCCCC3)N(Nc3ccc([N+](=O)[O-])cc3[N+](=O)[O-])C2C1=O (configuration not stated)
Result: T

Ask: Request: COC(=O)[C@@]1(Cc2ccccc2)[C@H]2c3cc(C(=O)N(C)C)n(CCSCCO)c3C[C@H]2CN1C(=O)c1ccccc1
Result: T

Ask: Now give it for COC(=O)[C@@]1(Cc2ccc(F)cc2)[C@H]2c3cc(C(=O)N(C)C)n(Cc4nc5ccccc5[nH]4)c3C[C@H]2CN1C(=O)c1ccccc1 too.
Result: T

Ask: Now consider COc1ccc(C(O)C2C=CC3C(=O)N(c4ccccc4)C(=O)C3N2Nc2ccc(C(C)C)cc2)cc1OCc1ccccc1 (configuration not stated) .
Result: F

* * *

Target: Streptavidin (Streptomyces avidinii)
Experiment: streptavidin binders on small-molecule microarray, primary screen, artefact control for SMM compound annotation, biophysical, 635/667 nm fluorescence (AID 1147);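 further: signal reflects streptavidin binding to arrayed compounds as a control protein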
Settings: streptavidin binding, higher = more signal
Class assignment keyed on composite z-score, ranges bin A (below -0.3), bin B (-0.3 to below 0.4), bin C (0.4 or more)

Ask: Each compound maps to one class by composite z-score. Which class for CCCC[C@@H]1C[C@H]1[C@@H](NC(=O)c1ccco1)c1ccc(C(=O)OC)cc1 ?
Result: bin C

Ask: Lookup COc1ccc(C(O)C2C=CC3C(=O)NC(=O)C3N2Nc2ccccn2)cc1 (stereo not drawn)
Result: bin B

Ask: # repeat for COC(=O)[C@@]1(Cc2ccccc2)[C@H]2c3cc(C(=O)N4CCCC4)n(Cc4nc5ccccc5[nH]4)c3C[C@H]2CN1C(=O)c1ccccc1
Result: bin C

Ask: One more compound: CC1CC/C=C\[C@H]2OC34C=CCN(c5ccc(Cl)cc5)C(=O)[C@H]3N(CCO)C(=O)[C@]4(C)C2C(=O)O1 (stereo partly drawn)
Result: bin A

Ask: Same lookup for COc1ccc(C(=O)O[C@H]2CC[C@]3(C)C4=C(CCC3C2(C)C)[C@]2(C)CC[C@H]([C@H](C)CCCC(C)C)[C@@]2(C)CC4)cc1 (stereo partly drawn) , please.
Result: bin B

Ask: Item: CC(C)C(=C=CC[C@@H](O)c1ccccc1OCCO)CCO
Result: bin C

Ask: Try the compound CCCC=C(CCC)[C@@H](NS(=O)(=O)c1cccs1)c1ccc(C(=O)OC)cc1
Result: bin C

Ask: Then what about the compound CCOC(=O)C[C@H]1[C@H](OC(=O)c2cc3ccccc3oc2=O)[C@@H](NC(=O)Cc2ccc(OC)cc2)c2cc(OCCCO)ccc2N1C(=O)c1ccccc1 ?
Result: bin B

Ask: Same read-out for CCCCCN1CC=CC23O[C@@H]4/C=C\CCCOC(=O)C4[C@H]2C(=O)N(CCCO)[C@@H]3C1=O (stereo partly drawn) ?
Result: bin A

Ask: Now the same for COCCOC(=O)N1C(=O)[C@@]2(c3cc(C#Cc4ccc(OC)cc4)ccc31)[C@H](c1ccc(O)cc1)N1[C@H](c3ccccc3)[C@H](c3ccccc3)OC(=O)[C@H]1[C@@H]2C(=O)NC[C@H](O)c1ccccc1
Result: bin C

Ask: Field entry: C=CCN(Cc1ccccc1)C(=O)C(c1cccs1)N(CCOCCO)C(=O)/C=C\C(=O)O (stereo not drawn)
Result: bin A

Ask: For COCCOC(=O)N1C(=O)[C@@]2(c3cc(C#CCCO)ccc31)[C@H](C(=O)N1CCc3cc(OC)c(OC)cc3C1)[C@H]1C(=O)O[C@H](c3ccccc3)[C@H](c3ccccc3)N1[C@@H]2c1ccc(O)cc1 then?
Result: bin B

Ask: Please do the same for CCCCc1cn(C[C@H](Cc2ccccc2)NC(=O)N[C@H](CO)CCc2oc(C(C)=O)c(C(=O)OC)c2C(=O)OC)nn1 as well.
Result: bin C

Ask: Next: C#CCNC(=O)[C@H](Cc1ccccc1)NC(=O)CCC(=O)O
Result: bin A

Ask: Same thing, different compound: C[C@]1(C(=O)NC2CC2)c2ccccc2C(=O)N(Cc2cc(C(F)(F)F)cc(C(F)(F)F)c2)[C@H]1c1ccc(CO)cc1
Result: bin B

Ask: Query CCCCCN1CC=CC23O[C@@H]4/C=C\CCCOC(=O)C4[C@H]2C(=O)N(C(CO)C(C)C)[C@@H]3C1=O (stereo partly drawn) next
Result: bin A

Ask: Another compound to look at: O=C1NC(=O)C2C1C=CC(C(O)c1cccc3ccccc13)N2Nc1ccccn1 (stereo not drawn)
Result: bin B

Ask: Next: O=C1OCCC=C[C@H]2OC34C=CCN(CCN5CCOCC5)C(=O)[C@H]3N(CCCCCCO)C(=O)[C@@H]4C12 (stereo partly drawn)
Result: bin A

Ask: Please give the result for C=CCOC(=O)[C@H]1[C@@H]2C(=O)O[C@@H](c3ccccc3)[C@@H](c3ccccc3)N2[C@@H](c2ccc(OCCOC(=O)[C@H]3C[C@H]4C(=O)N5CCC[C@H]5C(=O)N4[C@H]3c3ccc(O)cc3)cc2)[C@]12C(=O)Nc1ccc(I)cc12 too.
Result: bin C

Ask: Please give the result for CCCCC(=C=CC[C@@H](O)c1ccccc1OCCO)CCO too.
Result: bin A

Ask: Item: CCOC(=O)[C@H]1CC=C2CC1C(=O)N1CCC[C@@H]1[C@@H]2O[Si](C)(C)C(C)(C)C (stereo partly drawn)
Result: bin A

Ask: Now consider CC(C)C[C@@H]1NC(=O)[C@H]2C[C@@H](C(=O)NCCCCCCN(C)C)[C@@H](c3ccc(O)cc3)N2C1=O and answer again.
Result: bin B

Ask: Lookup COCCOC(=O)N1C(=O)[C@@]2(c3ccccc31)[C@H](c1ccc(O)cc1)N1[C@H](c3ccccc3)[C@H](c3ccccc3)OC(=O)[C@H]1[C@@H]2C(=O)NC[C@H](O)c1ccccc1
Result: bin A

Ask: Also CC(C)(C)OC(=O)CC[C@@]1(C(=O)NCCN2CCOCC2)N=C(c2ccc(OCCCO)cc2)O[C@@H]1c1ccccc1N=[N+]=[N-] ?
Result: bin C

Ask: Please answer likewise for CN(C)C(=O)[C@@]1(Cc2ccccc2CN=[N+]=[N-])N=C(c2ccc(OCCCO)cc2)O[C@H]1c1ccccc1
Result: bin B

Ask: Here is the next compound: COC(=O)c1c(CC[C@@H](CO)NC(=O)N[C@@H](C)Cn2cc(C3(O)CCCCC3)nn2)oc(C(C)=O)c1C(=O)OC
Result: bin C

Ask: Another: C=CCOC(=O)[C@H]1[C@@H]2C(=O)O[C@@H](c3ccccc3)[C@@H](c3ccccc3)N2[C@@H](c2ccc(OCCOC(=O)[C@@H]3C[C@@H]4C(=O)N5CCC[C@H]5C(=O)N4[C@@H]3c3cccc(OCCO)c3)cc2)[C@]12C(=O)Nc1ccccc12
Result: bin B
